Measured values drawn from patent US20250009780A1 for this set.

# protocol summary: Rat IV PK study of lipid excipient ALC-0159
# Type: in vivo, Wistar Han rats
# recorded conditions: Wistar Han, rat, plasma, iv, 1.96 mg ALC-0159/kg, 1.96 mg ALC-0159/kg single IV; read-out: initial plasma half-life (converted)
attribute measured: half-life
The answer consists of two parts: a number and, after it, its unit.

Req: Item CCCCCCCCCCCCCCN(CCCCCCCCCCCCCC)C(=O)COCCOCCOCCOCCOCCOCCOCCOCCOCCOCCOCCOCCOCCOCCOCCOCCOCCOCCOCCOCCOCCOCCOCCOCCOCCOCCOCCOCCOCCOCCOCCOCCOCCOCCOCCOCCOCCOCCOCCOCCOCCOCCOCCOCCOCCOC has what recorded half-life?
Resp: 1.72 h
